- assay_text: in vitro
- settings: human, Cell viability
quantity_kind: viability at 72 hr, 25 μM

1) O=C(/C=C/c1ccc(O)c(O)c1)OCCc1ccccc1 [CAPE, caffeic acid phenethyl ester] | 12.5%

---

- assay_text: MTT cell viability assay, Hep G2 cells (serum-free DMEM)
- settings: human, Hep G2 cells, Cell viability, DOX 0.1 μM, 48 hr
quantity_kind: viability at 48 hr, 0.1 μM (%)

1) COc1cccc2c1C(=O)c1c(O)c3c(c(O)c1C2=O)C[C@@](O)(C(=O)CO)C[C@@H]3O[C@H]1C[C@H](N)[C@H](O)[C@H](C)O1 | 100

---

- assay_text: MTT cell viability assay, Hep G2 cells (serum-free DMEM)
- settings: human, Hep G2 cells, Cell viability, LOV 50 μM, 72 hr
quantity_kind: viability at 72 h, 50 μM

1) CC[C@H](C)C(=O)O[C@H]1C[C@@H](C)C=C2C=C[C@H](C)[C@H](CC[C@@H]3C[C@@H](O)CC(=O)O3)[C@H]21 | 58.2%

---

- assay_text: MTT cell viability assay, Hep G2 cells (serum-free DMEM)
- settings: human, Hep G2 cells, Cell viability, taxol 500 nM, 72 hr
quantity_kind: viability at 72 h, 500 nM (%)

1) CC(=O)O[C@H]1C(=O)[C@@]2(C)[C@H]([C@H](OC(=O)c3ccccc3)[C@]3(O)C[C@H](OC(=O)[C@H](O)[C@@H](NC(=O)c4ccccc4)c4ccccc4)C(C)=C1C3(C)C)[C@]1(OC(C)=O)CO[C@@H]1C[C@@H]2O | 11

---

- assay_text: MTT cell viability assay, Hep G2 cells (serum-free DMEM)
- settings: human, Hep G2 cells, Cell viability, lovastatin 10 μM alone, 72 hr, Table 23
quantity_kind: viability at 72 h, 10 μM

1) CC[C@H](C)C(=O)O[C@H]1C[C@@H](C)C=C2C=C[C@H](C)[C@H](CC[C@@H]3C[C@@H](O)CC(=O)O3)[C@H]21 | 57.8%

---

- assay_text: MTT cell viability assay, Hep G2 cells (serum-free DMEM)
- settings: human, Hep G2 cells, Cell viability, taxol 10 nM, 72 hr, Table 9
quantity_kind: viability at 72 h, 10 nM (%)

1. CC(=O)O[C@H]1C(=O)[C@@]2(C)[C@H]([C@H](OC(=O)c3ccccc3)[C@]3(O)C[C@H](OC(=O)[C@H](O)[C@@H](NC(=O)c4ccccc4)c4ccccc4)C(C)=C1C3(C)C)[C@]1(OC(C)=O)CO[C@@H]1C[C@@H]2O | 39

---

- assay_text: MTT cell viability assay, Hep G2 cells (serum-free DMEM)
- settings: human, Hep G2 cells, Cell viability, LOV 5 μM, 48 hr, Table 4
quantity_kind: viability at 48 h, 5 μM

1) CC[C@H](C)C(=O)O[C@H]1C[C@@H](C)C=C2C=C[C@H](C)[C@H](CC[C@@H]3C[C@@H](O)CC(=O)O3)[C@H]21 [Lovastatin, lovastatin] | 87.2%

---

- assay_text: MTT cell viability assay, Hep G2 cells (serum-free DMEM)
- settings: human, Hep G2 cells, Cell viability, taxol 1000 nM, 72 hr
quantity_kind: viability at 72 h, 1000 nM (%)

1. CC(=O)O[C@H]1C(=O)[C@@]2(C)[C@H]([C@H](OC(=O)c3ccccc3)[C@]3(O)C[C@H](OC(=O)[C@H](O)[C@@H](NC(=O)c4ccccc4)c4ccccc4)C(C)=C1C3(C)C)[C@]1(OC(C)=O)CO[C@@H]1C[C@@H]2O | 9.9

---

- assay_text: MTT cell viability assay, Hep G2 cells (serum-free DMEM)
- settings: human, Hep G2 cells, Cell viability, DOX 2 μM, 48 hr
quantity_kind: viability at 48 hr, 2 μM (%)

1. COc1cccc2c1C(=O)c1c(O)c3c(c(O)c1C2=O)C[C@@](O)(C(=O)CO)C[C@@H]3O[C@H]1C[C@H](N)[C@H](O)[C@H](C)O1 | 16.7

---

- assay_text: MTT cell viability assay, Hep G2 cells (serum-free DMEM)
- settings: human, Hep G2 cells, Cell viability, LOV 10 μM, 96 hr
quantity_kind: viability at 96 h, 10 μM (%)

1) CC[C@H](C)C(=O)O[C@H]1C[C@@H](C)C=C2C=C[C@H](C)[C@H](CC[C@@H]3C[C@@H](O)CC(=O)O3)[C@H]21 | 55.1

---

- assay_text: MTT cell viability assay, Hep G2 cells (serum-free DMEM)
- settings: human, Hep G2 cells, Cell viability, LOV 10 μM, 72 hr, Table 4
quantity_kind: viability at 72 h, 10 μM (%)

1) CC[C@H](C)C(=O)O[C@H]1C[C@@H](C)C=C2C=C[C@H](C)[C@H](CC[C@@H]3C[C@@H](O)CC(=O)O3)[C@H]21 [Lovastatin, lovastatin] | 78.7

---

- assay_text: MTT cell viability assay, Hep G2 cells (serum-free DMEM)
- settings: human, Hep G2 cells, Cell viability, taxol 2 nM, 48 hr, Table 9
quantity_kind: viability at 48 h, 2 nM (%)

1. CC(=O)O[C@H]1C(=O)[C@@]2(C)[C@H]([C@H](OC(=O)c3ccccc3)[C@]3(O)C[C@H](OC(=O)[C@H](O)[C@@H](NC(=O)c4ccccc4)c4ccccc4)C(C)=C1C3(C)C)[C@]1(OC(C)=O)CO[C@@H]1C[C@@H]2O | 88

---

- System: Hep G2 cells
- assay_text: MTT cell viability assay, Hep G2 cells (serum-free DMEM)
- settings: Homo sapiens, HepG2, 72 h, read-out: IC50 of lovastatin (cell viability), 72 hr treatment
quantity_kind: IC50 (µM)

1. CC[C@H](C)C(=O)O[C@H]1C[C@@H](C)C=C2C=C[C@H](C)[C@H](CC[C@@H]3C[C@@H](O)CC(=O)O3)[C@H]21 | 62.3

---

- assay_text: MTT cell viability assay, Hep G2 cells (serum-free DMEM)
- settings: human, Hep G2 cells, Cell viability, lovastatin 10 μM 48 hr, then no CAPE 48 hr
quantity_kind: viability at 48 h, 10 μM (%)

1) CC[C@H](C)C(=O)O[C@H]1C[C@@H](C)C=C2C=C[C@H](C)[C@H](CC[C@@H]3C[C@@H](O)CC(=O)O3)[C@H]21 [Lovastatin, lovastatin] | 66.7

---

- assay_text: MTT cell viability assay, Hep G2 cells (serum-free DMEM)
- settings: human, Hep G2 cells, Cell viability, lovastatin 5 μM 48 hr, then no taxol 48 hr
quantity_kind: viability at 48 h, 5 μM (%)

1. CC[C@H](C)C(=O)O[C@H]1C[C@@H](C)C=C2C=C[C@H](C)[C@H](CC[C@@H]3C[C@@H](O)CC(=O)O3)[C@H]21 | 85.8

---

- assay_text: MTT cell viability assay, Hep G2 cells (serum-free DMEM)
- settings: human, Hep G2 cells, Cell viability, no lovastatin 48 hr, then taxol 2 nM 48 hr
quantity_kind: viability at 48 h, 2 nM

1) CC(=O)O[C@H]1C(=O)[C@@]2(C)[C@H]([C@H](OC(=O)c3ccccc3)[C@]3(O)C[C@H](OC(=O)[C@H](O)[C@@H](NC(=O)c4ccccc4)c4ccccc4)C(C)=C1C3(C)C)[C@]1(OC(C)=O)CO[C@@H]1C[C@@H]2O | 92.2%

---

- assay_text: MTT cell viability assay, Hep G2 cells (serum-free DMEM)
- settings: human, Hep G2 cells, Cell viability, lovastatin 10 μM 72 hr, then no taxol 48 hr
quantity_kind: viability at 72 h, 10 μM

1) CC[C@H](C)C(=O)O[C@H]1C[C@@H](C)C=C2C=C[C@H](C)[C@H](CC[C@@H]3C[C@@H](O)CC(=O)O3)[C@H]21 | 54.7%

---

- assay_text: MTT cell viability assay, Hep G2 cells (serum-free DMEM)
- settings: human, Hep G2 cells, Cell viability, no lovastatin 48 hr, then taxol 10 nM 48 hr
quantity_kind: viability at 48 h, 10 nM (%)

1) CC(=O)O[C@H]1C(=O)[C@@]2(C)[C@H]([C@H](OC(=O)c3ccccc3)[C@]3(O)C[C@H](OC(=O)[C@H](O)[C@@H](NC(=O)c4ccccc4)c4ccccc4)C(C)=C1C3(C)C)[C@]1(OC(C)=O)CO[C@@H]1C[C@@H]2O | 57.9

---

- assay_text: MTT cell viability assay, Hep G2 cells (serum-free DMEM)
- settings: human, Hep G2 cells, Cell viability, LOV 20 μM, 48 hr
quantity_kind: viability at 48 h, 20 μM (%)

1. CC[C@H](C)C(=O)O[C@H]1C[C@@H](C)C=C2C=C[C@H](C)[C@H](CC[C@@H]3C[C@@H](O)CC(=O)O3)[C@H]21 | 79.9

---

- assay_text: MTT cell viability assay, Hep G2 cells (serum-free DMEM)
- settings: human, Hep G2 cells, Cell viability, no lovastatin 48 hr, then CAO 1.25 μM 48 hr
quantity_kind: viability at 48 h, 1.25 μM (%)

1) CCCCCCCCOC(=O)/C=C/c1ccc(O)c(O)c1 | 99

From: patent US20020173538A1
